# Assay summary: Solubility of progesterone
# Type: physicochemical
# Condition context: polymerization medium, aqueous with cosolvent or surfactant or cyclodextrin; diluted hydrochloric acid (pH 2.0), 1% (w/v) poloxamer 188; read-out: maximum solubility in the polymerization medium
Quantity name: solubility

Query (compound): CC(=O)[C@H]1CC[C@H]2[C@@H]3CCC4=CC(=O)CC[C@]4(C)[C@H]3CC[C@]12C [Progesterone, progesterone] ; field requested: solubility
~60 µg/mL

----------
# Assay summary: Titration of progesterone/steroid content of nanoparticles by HPLC
# Assay type: physicochemical
# Condition context: PIBCA nanoparticles without HPβCD; average of 3 values
Quantity name: Drug load (mg/g)
Field format: number, assumed mg/g, no unit text.

Would you kindly share the measured Drug load for CC(=O)O[C@]1(C(C)=O)CC[C@H]2[C@@H]3C=C(C)C4=CC(=O)CC[C@]4(C)[C@H]3CC[C@@]21C [Megestrolacetate, megestrol acetate] ?
0.25

Entry to check: C#C[C@]1(O)CC[C@H]2[C@@H]3CCC4=Cc5oncc5C[C@]4(C)[C@H]3CC[C@@]21C
0.34

Same read-out for CC(=O)[C@H]1CC[C@H]2[C@@H]3CCC4=CC(=O)CC[C@]4(C)[C@H]3CC[C@]12C ?
0.79

Moving on to C[C@]12CC[C@H]3[C@@H](CCC4=CC(=O)CC[C@@]43C)[C@@H]1CC[C@@H]2O
2.27

Next:
Entry C[C@]12C=CC(=O)C=C1CC[C@@H]1[C@@H]2[C@@H](O)C[C@@]2(C)[C@H]1CC[C@]2(O)C(=O)CO : reported Drug load = ?
0.12

One more molecule: C[C@]12CCC(=O)C=C1CC[C@@H]1[C@@H]2[C@@H](O)C[C@@]2(C)[C@H]1CC[C@]2(O)C(=O)CO [Hydrocortisone, hydrocortisone]
2.19

Let us now turn to CC(=O)S[C@@H]1CC2=CC(=O)CC[C@]2(C)[C@H]2CC[C@@]3(C)[C@@H](CC[C@@]34CCC(=O)O4)[C@H]12
7.65

Sourced from patent US6881421B1
